Record form. Attribute: Relative activity. Fill in for each entry.
- System: purified Rhodococcus sp. FZ4 nitrile hydratase
- method: Influence of metal ions on the activity of purified nitrile hydratase
- Assay type: biochemical
- condition description: metal ions 1.0 mM; no addition = 100
Give the number first and the unit second.

Consider the worked cases shown below.
O=[N+]([O-])[O-].[Ag+]
0%
O=S(=O)([O-])[O-].[Fe+2]
113%
[Cl][Ni][Cl]
123%
O=S(=O)([O-])[O-].[Zn+2]
121%
O=S(=O)([O-])[O-].[Cu+2]
177%

Please state, for each entry, its recorded Relative activity.
1. [Ca+2].[Cl-].[Cl-]
2. [Cl][Mn][Cl]

Solution:
["113%", "123%"]

Please state, for each entry, its recorded Relative activity.
1. [Cl][Fe]([Cl])[Cl]
2. [Cl-].[Cl-].[Co+2]

Solution:
1. 105%
2. 110%

###

Record form. Attribute: Specific activity. Fill in for each entry.
- System: Rhodococcus sp. FZ4 nitrile hydratase
- Format: cell-based
- condition description: culture medium with inducer 0.2% (w/v), 28° C., 3 days; substrate 3-cyanopyridine

O=C1CCCCCN1
9.08 μmol/(min × ml × OD610 nm)
N#Cc1cccnc1
2.21 μmol/(min × ml × OD610 nm)
CCCCC#N
32.4 μmol/(min × ml × OD610 nm)

Please state, for each entry, its recorded Specific activity.
1. C/C=C/C(N)=O [Crotonamide]
2. CC(N)=O [Acetamide]
3. CC(C)CCC#N
4. CCC#N

Solution:
1: 59.9 μmol/(min × ml × OD610 nm); 2: 4.98 μmol/(min × ml × OD610 nm); 3: 28.5 μmol/(min × ml × OD610 nm); 4: 20.3 μmol/(min × ml × OD610 nm)

###

Record form. Attribute: Relative activity. Fill in for each entry.
- Tested on: purified Rhodococcus sp. FZ4 nitrile hydratase
- Assay type: biochemical
Numbers only, in %.

Consider the worked cases shown below.
O[C@H](CS)[C@H](O)CS (racemic) [Dithiothreitol]
103
c1ccc(-c2ccccn2)nc1 [2,2′-Bipyridyl]
97.8
Oc1cccc2cccnc12 [8-Hydroxyquinoline]
97.8
NO [Hydroxylamine]
1.34
OCCS [2-Mercaptoethanol]
76.3
O=C(O)c1cc[c]([Hg][Cl])cc1 [p-Chloromercuribenzoic acid]
187

Please state, for each entry, its recorded Relative activity.
1. N[C@@H]1CONC1=O [D-Cycloserine]
2. NNc1ccccc1 [Phenylhydrazine]

Solution:
1: 86.3; 2: 84.6

Please state, for each entry, its recorded Relative activity.
1. NC(N)=O [Urea]
2. O=S(=O)(F)Cc1ccccc1 [Phenylmethanesulfonyl fluoride]
3. O=C(O)CN(CCN(CC(=O)O)CC(=O)O)CC(=O)O [EDTA, Ethylenediaminetetraacetic acid]

Solution:
1. 106
2. 110
3. 100

###

- Test system: Rhodococcus sp. FZ4 nitrile hydratase
- Assay type: cell-based
- Method: Nitrile hydratase activity was determined by incubating a reaction mixture comprising 3-cyanopyridine (1.0 M; 1.0 ml), potassium phosphate buffer (0.1 M, pH 7.0; 0.5 ml) and cell suspension (0.5 ml) with stirring at 20° C. for 5 min. […] After filtration (0.2 μm filter) of the reaction mixture, the amount of nicotinamide produced was determined by means of HPLC (Waters Spherisorb 5 μ ODS2 (4.6×150 mm); KH2P04/H3P04 (10 mM; pH 2.8)/acetonitrile=9:1 (v/v); 1 ml/min; 230 nm). […]
Record form. Attribute: Total activity. Fill in for each entry.

Consider the worked cases shown below.
C=CC(N)=O [Acrylamide]
60.5 µmol/min/mL
CC#N [Acetonitrile]
18.4 µmol/min/mL
N#Cc1ccccc1 [Benzonitrile]
40.3 µmol/min/mL

Next:
Problem: Which Total activity value is on record for NC(=O)c1cccnc1 [Nicotinamide] ?
Solution: 4.94 µmol/min/mL
